B1: Azoarcus group I ribozyme (parent)
chain: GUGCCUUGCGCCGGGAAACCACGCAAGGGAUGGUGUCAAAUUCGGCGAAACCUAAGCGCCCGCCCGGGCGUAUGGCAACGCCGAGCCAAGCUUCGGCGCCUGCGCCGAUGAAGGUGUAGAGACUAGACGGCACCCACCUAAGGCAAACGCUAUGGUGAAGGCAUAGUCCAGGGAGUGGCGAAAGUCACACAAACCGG

Variants of: B1
Assay: reverse-splicing fitness (ratio to wild type); higher = more active; in vitro selection; Mg2+ level not given
Decide using reverse-splicing fitness: a value greater than or equal to 0.01 is satisfied, a smaller one is not satisfied.

Reported reverse-splicing fitness reaches at least 0.01 for C82G A120U A145C C150A C169U U176A ?
not satisfied

Is reverse-splicing fitness at least 0.01? Consider C82U A111C A145U C150U U176A
satisfied

Form field: reverse-splicing fitness at least 0.01? Entry: A111G A120G C150G C169A
satisfied

Entry C82U A111C A120G A145G C150A C169U U176A : is its reverse-splicing fitness no less than 0.01?
satisfied

Is the recorded value of reverse-splicing fitness equal to or greater than 0.01 for this variant? A111U A145C U176C
satisfied

# bool: reverse-splicing fitness of C82A A120G A145C >= 0.01
satisfied

Test whether the variant C82G A111U A120G A145C C150A C169U U176G records reverse-splicing fitness of 0.01 or higher.
not satisfied

Dear colleague, could you confirm whether A120G A145G C150U C169U U176G has reverse-splicing fitness at or above 0.01?
not satisfied

Say whether C82G A111C C150G C169U U176C shows reverse-splicing fitness of 0.01 or more.
satisfied

Identify whether the reported reverse-splicing fitness of the following variant is 0.01 or greater: C82A A120C A145G C169G U176C
satisfied

Decide: is the reported value of reverse-splicing fitness for C82G A111U A120G C150G C169A U176A equal to or greater than 0.01?
satisfied

Confirm if reverse-splicing fitness reported for the variant C82A A145G C150U C169G is 0.01 or above.
satisfied

Is reported reverse-splicing fitness greater than or equal to 0.01 here: C82G A111G A120U A145G C150G C169A U176A
satisfied

Determine whether measured reverse-splicing fitness meets or exceeds 0.01 for C82G A111U A120C A145G C150U C169U U176A
satisfied

Reported reverse-splicing fitness at or above 0.01? C82A A111G A120G C169U U176C
satisfied

Given A111C A120U A145U C150U C169U U176G , state whether its reverse-splicing fitness is at least 0.01.
not satisfied
